target: Human EGF receptor tyrosine kinase (Homo sapiens); conditions: read-out: EGFR (isolated enzyme) IC50; isolated enzyme from A431 cells, 10 μM ATP
Sequence (P00533 25-1210 limits assumed): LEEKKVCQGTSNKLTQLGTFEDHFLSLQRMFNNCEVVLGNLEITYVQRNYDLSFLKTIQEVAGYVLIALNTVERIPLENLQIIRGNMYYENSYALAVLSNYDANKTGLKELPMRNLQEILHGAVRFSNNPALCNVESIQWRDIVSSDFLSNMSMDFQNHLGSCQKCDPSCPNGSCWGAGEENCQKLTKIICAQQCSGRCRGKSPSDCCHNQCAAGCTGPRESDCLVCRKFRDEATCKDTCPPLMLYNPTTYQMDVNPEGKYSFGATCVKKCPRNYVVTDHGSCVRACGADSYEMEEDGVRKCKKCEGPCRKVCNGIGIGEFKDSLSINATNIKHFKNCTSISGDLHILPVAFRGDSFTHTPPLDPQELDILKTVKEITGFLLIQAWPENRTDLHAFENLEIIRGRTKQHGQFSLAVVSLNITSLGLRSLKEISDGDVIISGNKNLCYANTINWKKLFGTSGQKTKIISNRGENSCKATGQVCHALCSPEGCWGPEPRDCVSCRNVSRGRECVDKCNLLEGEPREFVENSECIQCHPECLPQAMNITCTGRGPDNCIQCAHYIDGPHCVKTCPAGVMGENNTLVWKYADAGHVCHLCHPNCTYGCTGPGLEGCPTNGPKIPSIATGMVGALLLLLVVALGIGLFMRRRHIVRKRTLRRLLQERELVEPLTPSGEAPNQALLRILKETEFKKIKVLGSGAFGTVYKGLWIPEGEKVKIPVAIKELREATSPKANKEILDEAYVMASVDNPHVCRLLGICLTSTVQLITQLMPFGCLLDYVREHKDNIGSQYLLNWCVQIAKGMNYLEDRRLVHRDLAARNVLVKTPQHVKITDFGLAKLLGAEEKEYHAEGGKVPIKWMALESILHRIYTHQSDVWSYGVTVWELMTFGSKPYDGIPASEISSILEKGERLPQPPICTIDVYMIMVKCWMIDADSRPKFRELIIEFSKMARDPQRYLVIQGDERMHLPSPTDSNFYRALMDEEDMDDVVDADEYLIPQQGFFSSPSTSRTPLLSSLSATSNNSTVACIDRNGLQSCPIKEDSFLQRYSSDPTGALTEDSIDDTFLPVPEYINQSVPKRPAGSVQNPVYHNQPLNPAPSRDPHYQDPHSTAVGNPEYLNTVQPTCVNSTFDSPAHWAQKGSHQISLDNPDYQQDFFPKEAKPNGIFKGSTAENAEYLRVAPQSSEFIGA
pIC50: −log10 of the molar value.
Parameter: pIC50. Scope: all listed entries.
endpointName: pIC50

> print(dat)
                                   compound  reportedvalue
1  C=CC(=O)Nc1ccc2ncnc(Nc3ccc(OCc4ccccc4)cc3)c2c1 [Example 2]           8.44
2  C=CC(=O)Nc1ccc2ncnc(Nc3ccc(Oc4ccccc4)cc3)c2c1 [Example 1]           8.24

====

biological target: ErbB-2 (Homo sapiens, UniProt P04626); test: ErbB-2 autophosphorylation assay; settings: read-out: ErbB-2 (autophosphorlyation) IC50
Sequence (P04626 23-1255, species assumed): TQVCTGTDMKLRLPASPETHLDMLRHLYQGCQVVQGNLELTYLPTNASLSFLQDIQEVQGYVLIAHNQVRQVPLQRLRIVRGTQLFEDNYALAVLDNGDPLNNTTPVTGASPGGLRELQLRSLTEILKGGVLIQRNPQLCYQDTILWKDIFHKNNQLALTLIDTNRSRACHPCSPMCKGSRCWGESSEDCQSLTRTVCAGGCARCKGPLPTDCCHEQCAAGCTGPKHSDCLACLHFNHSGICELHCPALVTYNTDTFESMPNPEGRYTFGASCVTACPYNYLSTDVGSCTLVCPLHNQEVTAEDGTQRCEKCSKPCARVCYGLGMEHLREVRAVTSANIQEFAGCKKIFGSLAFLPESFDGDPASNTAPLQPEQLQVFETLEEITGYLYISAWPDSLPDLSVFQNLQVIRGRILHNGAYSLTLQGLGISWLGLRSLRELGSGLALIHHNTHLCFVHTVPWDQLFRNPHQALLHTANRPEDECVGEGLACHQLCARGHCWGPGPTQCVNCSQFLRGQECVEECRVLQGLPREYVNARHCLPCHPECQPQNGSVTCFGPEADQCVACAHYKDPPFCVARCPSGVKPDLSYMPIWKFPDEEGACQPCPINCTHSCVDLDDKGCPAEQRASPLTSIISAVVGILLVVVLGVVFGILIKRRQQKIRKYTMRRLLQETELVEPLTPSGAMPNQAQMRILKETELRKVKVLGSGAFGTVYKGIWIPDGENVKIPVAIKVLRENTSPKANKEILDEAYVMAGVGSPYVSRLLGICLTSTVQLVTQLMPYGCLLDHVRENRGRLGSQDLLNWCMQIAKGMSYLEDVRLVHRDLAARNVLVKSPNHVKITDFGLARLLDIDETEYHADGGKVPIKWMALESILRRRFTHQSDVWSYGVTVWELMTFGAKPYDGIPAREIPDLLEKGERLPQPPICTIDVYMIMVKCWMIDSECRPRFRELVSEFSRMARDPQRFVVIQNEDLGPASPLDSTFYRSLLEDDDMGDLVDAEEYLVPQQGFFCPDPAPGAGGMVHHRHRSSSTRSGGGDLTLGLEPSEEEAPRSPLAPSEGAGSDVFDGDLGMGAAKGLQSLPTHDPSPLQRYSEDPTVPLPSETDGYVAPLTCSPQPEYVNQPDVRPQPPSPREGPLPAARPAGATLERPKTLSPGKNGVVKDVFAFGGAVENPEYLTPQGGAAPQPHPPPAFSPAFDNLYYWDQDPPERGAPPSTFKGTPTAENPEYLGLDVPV
endpointName: IC50 (nM)

> print(dat)
                                   compound  reportedvalue
1  C=CC(=O)Nc1ccc2ncnc(Nc3ccc(OCc4ccccc4)cc3)c2c1 [Example 2]            7.6
